assay: PAMPA permeability; settings: PAMPA
MEASUREMENT TYPE: Perm. (1 × 10^−6 cm/sec)

CC1=C(C(=O)Nc2ccccn2)C(c2ccccc2Cl)N=C(Nc2nc3ccccc3o2)N1 (stereo not shown)
173.5 1 × 10^−6 cm/sec
CC1=C(C(=O)Nc2nncs2)C2(Cc3ccccc32)N=C(Nc2nc3ccccc3o2)N1 (stereo not shown)
190.9 1 × 10^−6 cm/sec
COC(=O)c1ccccc1CNC(=O)C1=C(C)NC(Nc2nc3ccccc3o2)=NC1c1ccccc1Cl (stereo not shown)
462.5 1 × 10^−6 cm/sec
CC1=C(C(=O)Nc2cc(C(=O)O)ccn2)C(c2ccccc2Cl)N=C(Nc2nc3ccccc3o2)N1C(=O)c1ccccc1 (stereo not shown)
<1 1 × 10^−6 cm/sec
COC(=O)c1cccc(CNC(=O)C2=C(C)NC(Nc3nc4ccccc4o3)=NC2c2ccccc2Cl)c1 (stereo not shown)
615.7 1 × 10^−6 cm/sec
CC1=C(C(=O)Nc2nnc(C)s2)C(c2ccccc2Cl)N=C(Nc2nc3ccccc3o2)N1 (stereo not shown)
23.75 1 × 10^−6 cm/sec

Field: next compound
Query block: May I ask what Perm. (1 × 10^−6 cm/sec) has been recorded for `COC(=O)c1ccnc(NC(=O)C2=C(C)NC(Nc3nc4ccccc4o3)=N[C@H]2c2ccccc2Cl)c1` ?
Result block: 306.7 1 × 10^−6 cm/sec

* * *

test: PAMPA permeability; details: PAMPA, Perm. (1 × 10^−6 cm/sec)
MEASUREMENT TYPE: Papp

Query block: May I ask what Papp has been recorded for CC1=C(C(=O)NCc2cn(C)cn2)C(c2ccccc2Cl)N=C(Nc2nc3ccccc3o2)N1 (racemic) [Compound 233] ?
Result block: 868 ×10⁻⁶ cm/s

Query block: CC1=C(C(=O)Nc2ccc(-c3nnn[nH]3)cc2)C(c2ccccc2Cl)N=C(Nc2nc3ccccc3o2)N1 (stereo not shown) [Compound 192] ?
Result block: < 1.7 ×10⁻⁶ cm/s

Query block: CCOC(=O)c1cccc(NC(=O)C2=C(C)NC(Nc3nc4ccccc4o3)=NC2c2ccccc2Cl)c1 (stereo not shown) [Compound 139] ?
Result block: 8.8 ×10⁻⁶ cm/s

Query block: COC(=O)c1cnc(NC(=O)C2=C(C)NC(Nc3nc4ccccc4o3)=NC2c2ccccc2Cl)s1 (stereo not shown) [Compound 185] ?
Result block: < 7.6 ×10⁻⁶ cm/s

* * *

target: recombinant mouse GALK1 (Mus musculus); experiment: mGALK1 biochemical activity assay (Kinase-Glo Plus, ATP depletion); conditions: recombinant mouse GALK1, Kinase-Glo Plus ATP depletion; read-out: mGALK
Sequence (Q9R0N0 whole entry): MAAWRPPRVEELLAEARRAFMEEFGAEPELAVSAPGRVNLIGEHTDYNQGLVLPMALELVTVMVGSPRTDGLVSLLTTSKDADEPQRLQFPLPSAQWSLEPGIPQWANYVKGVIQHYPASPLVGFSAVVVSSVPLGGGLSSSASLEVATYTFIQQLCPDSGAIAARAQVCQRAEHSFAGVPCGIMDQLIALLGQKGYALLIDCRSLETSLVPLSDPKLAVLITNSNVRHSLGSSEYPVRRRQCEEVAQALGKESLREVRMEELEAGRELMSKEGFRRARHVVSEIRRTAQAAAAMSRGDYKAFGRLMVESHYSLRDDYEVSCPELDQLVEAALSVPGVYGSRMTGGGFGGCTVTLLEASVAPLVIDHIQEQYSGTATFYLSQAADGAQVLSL
Reported pIC50 by item:
A value of pIC50 is the negative decimal logarithm of a concentration given in moles per litre.

Query block: May I ask what pIC50 has been recorded for CC1=C(C(=O)Nc2cc(C(=O)O)ccn2)C(c2ccc(Br)cc2Cl)N=C(Nc2nc3ccc(F)cc3o2)N1 (stereo not shown) ?
Result block: 5.41

Query block: CC1=C(C(=O)Nc2cc(C(=O)O)ccn2)C(c2ccc(C)cc2Cl)N=C(Nc2nc3cnccc3o2)N1 (stereo not shown) ?
Result block: 5.16

Query block: COc1ccc2nc(NC3=NC(c4ccccc4Cl)C(C(=O)Nc4cc(C(=O)O)ccn4)=C(C)N3)oc2c1 (stereo not shown) ?
Result block: 4.66

Query block: CC1=C(C(=O)Nc2cc(C(=O)O)ccn2)C(c2cccc(N)c2Cl)N=C(Nc2nc3ccc(F)cc3o2)N1 (stereo not shown) ?
Result block: 4.76
